assay: yeast display, Sf9 membrane polyspecificity reagent, FACS + sequencing; frameworks hold sequencing errors
recorded_endpoint: polyreactivity (PSR sort gate)

biopolymer_sequence | measured
QVQLVESGGGLVQAGGSLRLSCAASGFIFYYYAMGWYRQAPGKVRELVAGITATGGSTYYADSVKGRFTISRDNAKNTVYLQMNSLKPEDTAVYYCAAEHGRRATYTWWVIYDYLGQGTQVTVSS | low polyreactivity
QVQLVESGGGLVQAGGRLRLSCAASGNIFYPNAMGWYRQAPGKERELVAAISSSGGSTYYADSVKGRFTISRDNAKNTVYLQMNSLKPEDTAVYYCAKDRSYAYYWWPYPTGYDYWGQGTQVTVSS | low polyreactivity
QVQLVDSGGGLVQAGGSLLLSCAASGSTYKFYAMGWYRQAPGKERELVASITSSSGPTYYADSVKGRFTISRDNAKNTVYLQMKSLKPEDTAVYYCAKRPIRYYHLLRGNYWGQGTQVTVSS | low polyreactivity
QVQLVESGGGLVQAGGSLRLSCAASGSISDVYAMGSYRQAPGKETELVAAITSGASTYYADSVKGRFTISRDNAKNTVYLQMNSLKPEDTAVYYCAADSDSQWGMDYWGQGTQVTVSS | low polyreactivity

====

assay: yeast display, Sf9 membrane polyspecificity reagent, FACS + sequencing; frameworks hold sequencing errors
recorded_endpoint: polyreactivity (PSR sort gate)

Answered cases to consult:
biopolymer_sequence | polyreactivity (PSR sort gate)
QVQLVESGGGLVQAGGSLRLSCAASGFTFERNAMGWYIQAPGKERELVATINGSSDSTYYADSVKGRFTISRDNAKNTVYLQMNSLKPEDTAVYYCNADSITEGNSRYSHFDYWGQGTQVTVSS | low polyreactivity
QVQLVESGGGLVQAGGSLRLSCAASGSTFGTYAMGWYRQAPGKERELVAAITRSGGSTYYADSVKGRFTISRDNAKNTVYLQMNSLKPEDTAVYYCAAVSKGYYYWGQGTQVTVSS | high polyreactivity
QVQLVESGGGLVQAGGSLRLSCAASGIIFQFYAMGWYRQAPGKERELVAAISRSGGITHYADSVKGRFTISRDNAKNTVYLQMNSLKPEDTAVYYCNAVQPARFVGGFGTGVDYWGQGTQVTVSS | high polyreactivity
QVQLVESRGGLVQAGGSLRLSCAASGFTFERYTMGWYRQAPGKERELVAGINYSGGSTYYADSVKGRFTISRDNAKNTVYLQMNSLKPEDTAVYYCAKDFPYSRYRRRYYYWGQGTQVTVSS | high polyreactivity
QVQLVESGGGLVQAGGSLRLSCAASGSIFPRYAMGWYRQAPGKERELVAAITGSGSSTYYADSVKGRFTISRDNAKNTVYLQMNSLKPEDTAVYYCAGVYTYPLGYYHYTYDYWGQGTQVTVSS | low polyreactivity
QVQLVESGGGLVQAGGSLRLSCAASGSIFYLYAMGWYRHAPGKERELVATITVSGSSTYADSVKGRFTISRDNAKNTVYLQMISLKPEDTAVYYCAADGGRQVYTQLYDYWGQGTQVTVSS | low polyreactivity

Would you mind telling me what polyreactivity (PSR sort gate) value was observed for QVQLVESGGGLVQAGGSLRLSCAASGLIFRRYTMGWYGQGPGKERELVAAITSSGGNTYYADSVKGRFTISRDNAKNTVYLQMNSLKPEDTAVYYCNNPGTHNYYYWGQGTQVTVSS ? high polyreactivity

Recorded polyreactivity (PSR sort gate) of QVQLVESGGGLVQAGGSLRLSCAASGFIFTGNAMGWYRQAPGKERELVAAITGRGSTYYADSVKGRFTISRDNGKNSVYLQMNSLKPEDTAVYYCAAKRWWQYYWGQGTQVTVSS , please. high polyreactivity

====

assay: yeast display, Sf9 membrane polyspecificity reagent, FACS + sequencing; frameworks hold sequencing errors
recorded_endpoint: polyreactivity (PSR sort gate)

These recorded examples may help you get a feel for the data.
biopolymer_sequence | measured
QVQLVESGGGLVQAGGSLRLSCAASGIIFRNYAMGWYRQAPGKERELVAAISRNGGSTYYADSVKGRFTISRDNAKNTVYLQMNSLKPEDTAVYYCAAVSPGTVTNGKSRDYWGQGTQVSVSS | high polyreactivity
QVQLVESGGVLVQARVSLRLSCAASGLTIYYYAMGWYRQAPGQERELVAAITWRGGSTYYADSVKGRFTISRDNEKNTVYLQMISLKPEVTAVYYCAADPGPYGYYYWGLGTQVTVSS | low polyreactivity
QVQLVESGGGLVQAGGSLRLSCAASGRTFGFNVMGWYRQAPGKERELVAAISRSGGSTYYADSVKGRFTISRDNAKNTVYLQMNRLKPEDTAVYYCNKRYVHRYGYWGPGTQVTVSS | low polyreactivity
QVQLVESGGGLVQAGGRLRLSCAASGSIFITYDMGWYRQAPGKERELVATISTTGGTTYYADSVKGRFTISRDNAMNTVYLQMNSLKPEDTAVYYCAADWRYLYYALDYWGQGTQVTVSS | low polyreactivity

Which value of polyreactivity (PSR sort gate) has been reported for QVQLVESGGGLVQAGGSLRLSCAASGGTFQLNAMGWYRQAPGKERELVATITTGGSTYADSVKGRFTISRDNAKNTVYLQMNSLKPEDTAVYYCNKTCFLVKLDYWGQGTQVTVSS in the records? low polyreactivity

What measured polyreactivity (PSR sort gate) goes with QVQLVESGGGLVQPGGSLRLSCAASGRILYYHAMAWYRQAPGKERELVARISSGGSTNYADSVKGRFTISRDNAKNTVYLQMNSLKPEDTAVSYCAVAKGGLAWGVGRGGRYDYWGQGTQVTVSS ? low polyreactivity

Param item = QVQLVESGVGLVQAGGSLRLSCAASGRIFAFYTMGWYRQAPGKERELVAASSTRGDSTYYADSVKGRFTISRDNAKNTVYLQMNSLKAEDTAVYYCAKSRQTSGRVRFDYWGQGTQVTVSS ; retrieve measured polyreactivity (PSR sort gate). low polyreactivity

Param item = QVQLVESGGGLVQAGRSLRLICAASGSIFRKYAMCWYRQAPVKESELVAAINYSGGNTYYADSVKGRFTISRDNSKNTVYLQMNSLKPEDTAVYFCAADSVRHYWWAYYYWGQVTQVTVSS ; retrieve measured polyreactivity (PSR sort gate). low polyreactivity

Would you kindly share the measured polyreactivity (PSR sort gate) for QVQLVESGGGLVQAGGSLRLSCAASGSIFEYNAMGWYRQAPGKERELVAAISWSSGTTYYADSVKGRFTISRDNAKNTVYLQMNSLKPEDTAVNYCIAGRYGKDSDYWGQGTQVTVSS ? low polyreactivity

Which polyreactivity (PSR sort gate) value is on record for QVQLVESGGGLVQAGGSLRLSCAASGSTFSTNAMGWYRQAPGKERELVAAISRSGGRTYYADSVKGRFTISRDNAKNTVYLQMNSLKPEDTAVYYCNAVRRFASPSPHYYWGQGTQVTVSS ? high polyreactivity

Given the entry QVQLVESGGGLVLAGGSLRLSCAASGITFKWYAMGWYRQAPGKERELVAAITSGGGTNYADSVKGRFTISRDNAKNTVYLQMNSLKPEDTAVYYCAARFYQLPWRRYDYWGQGTQVTVSS , report its measured polyreactivity (PSR sort gate). high polyreactivity

What does the record list as polyreactivity (PSR sort gate) for QVQLVESGGGLVQAGGSLRLSCAASGRIFKVYAMGWYRQAPGKERELVAVITGGGSTNYADSVKGRFTISRDNAKNTVYLQMNSLKPEDTAVYYCATEGYGHGGETDGGVYSDLGYWGQGTQVTVSS ? low polyreactivity

Reported polyreactivity (PSR sort gate) for QVQLVESGGGLVQAGGSLRLSCAASGYTFWYNAMGWYIPAPGKERELVAAIRSSGARTYYADSVKGRFTISRDNAKNTVYLQMNSLKPEDTAVYYCAASLRSGGRSHYYWGQGTQVTVSS : what is it? high polyreactivity

Give the measured polyreactivity (PSR sort gate) of QVQLVESRGGLVQVGGSLRLSCAASGRTFGRYAMGWYRQAPGNERELVAAINSVARTNYADSVKGRFTISRDNAKNTVYLQMNSLKPEDSAVYYCAARRRGSVGVGYAYPYNYWGQGTQVTVSS . high polyreactivity

Report polyreactivity (PSR sort gate) for QVQLVESGGGLVQAGGSLRLSCAASGSTFYDYAMGWYRQAPGKERELVAGIRNGGSTNYADSVKGRFTISRDNAKNTVYLQMNSLIPEDTAVYYCAAPRWDGFYSYYRVVWGIFDYWGQGTQVTVSS please. low polyreactivity

Given QFQLVESWVGLVQAGGSLRLSCAASGSTFPYYAIGWYRQAPGKERELVASIRKRGGGTYYADSVKGRFTISRDNAKNTVYLQMNSLKPEDTAVYYCAVRVYQFRFTGYDYWGHGTQVTVSS , state its recorded polyreactivity (PSR sort gate). high polyreactivity

Return reported polyreactivity (PSR sort gate); argument: QVHLVESGGGLVQAGGSLRLSCSASGRTFGWNVMGWYRQAPGKERELVAAISGSGGSTYYADSVKGRFTISRDNAKTTVYLQMNSLKPEDTAVYYCAALYGPGREYDYWGQGTQVTVSS low polyreactivity

Would you mind telling me what polyreactivity (PSR sort gate) value was observed for QVQLVESGGGLVQAGGSLRLSCAASGNIFVFYVMGWYRQAPGKERELVASISSTGNTYYADSVKGRFTISRDNAKNTVYLQMNSLKPEDTAVYYCAAEYYSIRYGPHSIEVYGMDYWGQGTQVTVSS ? low polyreactivity

Recorded polyreactivity (PSR sort gate) of QVQLVESGGGLVQAGGSLSLSCAASGSIFVIYTMGWYRPAPGKERELVAGITWSTGNTYYADSVKGRFTISRDNAKNTFYLQMNSLKPEDTAVYSCAARTTSRWRSGAYYYWGQGTQVTVSS , please. high polyreactivity

Can you share its polyreactivity (PSR sort gate)? I mean this sequence: QVQLVESGGGLVQAGGSLRLSCAASGITFAGYAMGSDREAPGTERELVAAITRRGGITYYADSVKGRFTISRDNAKNTVYLQMNSLKPEDTAVYYCNAGRRVSTYGYWGQGTQVTVSS high polyreactivity

Return reported polyreactivity (PSR sort gate); argument: QVQLVESGGGLVQAGGSLRLICAASGSTLNSYVMGWSRQAPGKERDMVATIRSGSSTNYADSVKGRFTISRDNAKNTVYFQMNSLIPEDTAVYSCAADAYSLCYDSWGQGTQVTVSS low polyreactivity
